For each record, write down the corresponding growth.
# Tested on: SK-MEL-28 melanoma
# Experimental protocol: NCI-60 one-dose screen, 48 h (100 = growth as untreated, 0 = no growth, -100 = all killed)
# Experimental conditions: 10 µM unless noted
This is part of a sample that, as a whole, favours compounds with a hit. Of some 83,000 tested, about 20% had one in any assay.
Provide the reading as a plain figure in %.

Which measured growth value corresponds to Cn1ccnc1C(=O)/C=C/C=C/c1ccc(C(=O)Nc2ccc(F)cc2)cc1 ?
39.7

Try CC(=O)C1=C(C)NC(NN)=NC1c1cccc(Cl)c1 (centres undefined) next.
106

Another molecule to check: C=CCn1c(-c2nc3ccc(C(=C(C#N)C#N)c4ccccc4)cc3[nH]2)cc2cc(Br)ccc21
82.9

How about NC(N)=Nc1ccc(Oc2cccc(Nc3ccc(Br)c(C(F)(F)F)c3)c2)cc1 ?
58.3

Check CCOc1ccccc1NC1=C(Cl)C(=O)c2nc(C)ccc2C1=O too.
14.6

Param item: CC1(C)[C@@H](O)CC[C@]2(C)[C@H]3CC[C@@H]4[C@H]5[C@H](C(=O)/C=C\c6ccncc6)CC[C@]5(O)CC[C@@]4(C)[C@]3(C)CC[C@@H]12
74.8

One more molecule: CN1CCC(n2cc(Nc3ncc4c(=O)n(-c5c(Cl)cccc5Cl)cc(Br)c4n3)cn2)CC1
63.4

Another molecule: COc1cc(-c2ccc3ncnc(NCc4ccccc4)c3c2)cnc1OC
63.2

Also O=C(Nc1cccc(C(F)(F)F)c1)c1cc(-c2ccc(F)cc2F)ccc1O ?
24.6

###

# Test system: SN12C renal
# Experimental protocol: NCI-60 one-dose screen, 48 h
# Experimental conditions: 10 µM unless noted
This is part of a sample that, as a whole, favours compounds with a hit. Of some 83,000 tested, about 20% had one in any assay. The source made the active and inactive calls. The calls were made as follows: active = growth percent below 10; inactive = the rest.
Please state which outcome applies, choosing from active, inactive

Called result for CNC(=O)c1cc(Oc2ccc3nc(NC(=O)c4cc(N5CCOCC5)cc(C(F)(F)F)c4)sc3c2)ccn1
inactive

Record: C#CCn1cccc1CNc1ccc(OC)cc1
active

Please do the same for NC(N)=Nc1ccc(Oc2cccc(Nc3ccc(Cl)c(C(F)(F)F)c3)c2)cc1 as well.
inactive

Check COc1cc(/C=C/C(=O)c2ccc(NC(=O)CSc3nnc(-c4ccc(-c5nc6ccc(Cl)cc6[nH]5)cc4)o3)cc2)cc(OC)c1OC too.
inactive

Entry COc1cc2c(cc1OC)C(Sc1ccc(C)cc1)c1c(nc(N)c(C#N)c1N)O2 (centres undefined) please
active

Also check CS(=O)(=O)Nc1cc(-c2ccc3ncc(C#N)c(NCc4ccccc4)c3c2)cnc1Cl
active

Now consider CCOc1ccccc1NC1=C(Cl)C(=O)c2nc(C)ccc2C1=O and answer again.
active

Next molecule up: Nc1nc(-c2cccc([N+](=O)[O-])c2)c(N=Nc2ccc([N+](=O)[O-])cc2Cl)s1
active

Now give it for CC(=O)Nc1cccc(Nc2nc(N[C@H](C)c3ccccc3)c3ccccc3n2)c1 too.
inactive

###

# Test system: NCI-H322M lung
# Experimental protocol: NCI-60 one-dose screen, 48 h (100 = growth as untreated, 0 = no growth, -100 = all killed)
# Experimental conditions: 10 µM unless noted
About 83,000 compounds went through this panel and 20% of them were active in at least one assay; those are over-represented in the sample as a whole.
Assay endpoint: growth (%)
Give just the number in %; leave the unit off.

Which growth value belongs to Nc1cc(F)ccc1NC(=O)c1ccc(NC(=O)C/C=C/c2cccnc2)cc1 ?
67

Also, NC(N)=Nc1ccc(Oc2cccc(NC(N)=Nc3ccc(Cl)c(C(F)(F)F)c3)c2)cc1 please.
64.6

Then this molecule: CNC(=O)c1cc(Oc2ccc3nc(NC(=O)c4ccc(N5CCOCC5)c(C(F)(F)F)c4)sc3c2)ccn1
91.7

What about this molecule? NS(=O)(=O)c1ccc(Nc2nc(N/N=C/c3ccc(Cl)cc3)nc(Nc3ccccc3)n2)cc1
93.1

Entry to check: Cc1ccc(S(=O)(=O)NCCNc2nc(Nc3ccc(N4CCN(C)CC4)cc3)nc3ccsc23)cc1
110

Also need CN1CCN(c2nc(-c3csc(-c4ccccc4)n3)cc3ccccc23)CC1 , thanks.
72.9

What about this molecule? Oc1[nH]c2ccccc2c1Nn1c(N=N/C=c2/ccc3c(c2)C=NN=3)n[nH]c1=S
107

Try the molecule O=C(NNc1nc2cc(F)c(F)cc2n2cccc12)c1cnccn1
35

Please answer likewise for CCCCc1nc(/C=N/Nc2nc(Nc3ccccc3)nc(Nc3ccc(S(N)(=O)=O)cc3)n2)c(Cl)[nH]1
99.1

What do you get for O=C1/C(=C/C=C/c2ccco2)SC(=S)N1C1CCCCC1 ?
97.4
